Each entry below lists one item and its recorded z-score value.
# assay.explanation: basal 3T3-L1 adipocyte mitochondrial potential changes, profiling panel, cell-based, JC-1 fluorescence, 3T3-L1 adipocytes, 24 h, 100 nL compound (AID 1168); further: test concentration not given here
# cond: JC-1 mitochondrial fluorescence, higher = more signal, called active from +8 up or from −8 down
parameter.measured: z-score

- CCOC(=O)NN=C1C[C@@H](O)[C@@H](O)[C@@H]2[C@@H]3C(=O)N(c4cccc(Oc5ccccc5)c4)C(=O)[C@@H]3CC[C@@H]12: -0.451
- C[C@@H]1CC[C@H]2C(=O)O[C@@H](Cc3ccccc3)CN2[C@H]1c1ccc(Br)cc1: 0.276
- Cc1ccc(S(=O)(=O)OC[C@H]2CN3[C@H](c4ccc(Br)cc4)[C@@H](C)CC[C@H]3C(=O)O2)cc1: 0.555
- C[C@@H]1CC[C@H]2C(=O)O[C@@H](COc3ccc(C(C)(C)C)cc3)CN2[C@@H]1c1ccc(Br)cc1: -0.391
- CC[C@@H](c1ccccc1)n1c(=O)n2n(c1=O)[C@H]1[C@H](O)[C@@H]3O[C@@H]3C(=NOC[C@@H](O)COCc3ccco3)[C@H]1CC2: -0.368
- COc1cccc([C@H]2Oc3ccc(OC)cc3C(=NO[C@H](C)c3cn([C@H](CO)Cc4ccccc4)nn3)[C@@H]2O)c1: -3.16
- CO[C@H](C1CCCCC1)[C@H](C)C=CCC(=O)OCCCc1ccccc1: -0.249
- O=C1C[C@@H](O)[C@@H](O)[C@@H]2[C@@H]3C(=O)N(C[C@@H]4CCCO4)C(=O)[C@@H]3CC[C@@H]12: -0.248
- CC(C)CON=C1C[C@@H](O)[C@@H](O)[C@@H]2[C@@H]3C(=O)N(C4CCCCC4)C(=O)[C@@H]3CC[C@@H]12: -0.49
- COC(=O)[C@H](C)NC(=O)CCC1CC(OC(=O)NCc2ccc3c(c2)OCO3)CC2(CCCC(COC(=O)NCC(c3ccccc3)c3ccccc3)O2)O1 (some centres undefined): -0.013
- CCN1C(=O)[C@H]2[C@H]3[C@H](O)[C@H](O)CC(=O)[C@H]3CC[C@H]2C1=O: -0.386
- CO[C@@H]1COC(=O)[C@H](CCSC)NC(=O)CC=C[C@@H](C)COC(=O)[C@H](C)NC(=O)CC=C[C@H]1C: -0.225
- CCOC(=O)[C@H](CC(C)C)NC(=O)CCC1CC(OC(=O)NCc2cccc3ccccc23)CC2(CCCC(COC(=O)NCCOc3ccccc3)O2)O1 (some centres undefined): 0.661
- CCOC(=O)[C@H](Cc1ccccc1)NC(=O)CCC1CC(OC(=O)NCc2cccc3ccccc23)CC2(CCCC(COC(=O)NCC(c3ccccc3)c3ccccc3)O2)O1 (some centres undefined): -0.151
- CSCC[C@@H]1NC(=O)CC=C[C@@H](C)COC(=O)[C@@H](C)COC1=O: 0.0903
- O=C1C[C@@H](O)[C@@H](O)[C@@H]2[C@@H]3C(=O)N(Cc4ccccc4)C(=O)[C@@H]3CC[C@@H]12: 0.377
- COc1ccc(C#C[C@@H]2C=C[C@H](OC(C)=O)[C@@H](COC(C)=O)O2)cc1: -0.197
- COc1cccc([C@H]2Oc3ccc(OC)cc3C(=NO[C@@H](C)c3cn([C@H](CO)Cc4ccccc4)nn3)[C@@H]2O)c1: -1.1
- COc1ccc(O[C@H]2C=C[C@@H](c3ccccc3)O[C@@H]2CON=CC[C@@H]2C=C[C@H](OC(C)=O)[C@@H](COC(C)=O)O2)cc1: -0.112
